Each recorded value in this set is attributed to PubChem BioAssay.

Test system: glycogen synthase kinase-3 (GSK3A per assay name; protocol says GSK3B)
assay_overview: GSK3 binders on small-molecule microarrays, primary screen, biochemical, small-molecule microarray, 635 nm fluorescence, GSK3A (AID 1103); further: the record names both GSK3A and GSK3B
condition_info: small-molecule microarray binding, fluorescence 635 nm; higher = more signal
measured_metric: composite z-score
Format: numeric value only, no unit, no commentary.

Look over these answered cases.
smiles_string | recorded_number
Cc1c(NC(=O)/C(C#N)=C/C=C/c2ccc(N(C)C)cc2)c(=O)n(-c2ccccc2)n1C | 1.02
O=C1C[C@@](C(=O)NCC(F)(F)F)(c2ccc([N+](=O)[O-])cc2)[C@@H](c2ccc(CO)cc2)N1C1CCCCC1 | 1.31

Find composite z-score (glycogen synthase kinase-3 (GSK3A per assay name; protocol says GSK3B)) for the entry O=C1O[C@@H](c2ccccc2)[C@@H](c2ccccc2)N2[C@@H](c3ccccc3OCCO)[C@]3(C(=O)Nc4ccccc43)[C@@H](C(=O)NC[C@H](O)c3ccccc3)[C@H]12
0.342

Find composite z-score (glycogen synthase kinase-3 (GSK3A per assay name; protocol says GSK3B)) for the entry O=c1cccc(-c2ccc(C(F)(F)F)cc2)o1
-0.762

###

Test system: Noggin (protein binding on small-molecule microarray)
assay_overview: Noggin binders on small-molecule microarray, primary screen, biochemical, 635/667 nm fluorescence (AID 1095);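 further: score merges 667 nm feature fluorescence with signal to noise over triplicate slides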
condition_info: 635 nm fluorescence, higher = more signal
measured_metric: composite z-score
Format: numeric value only, no unit, no commentary.

Look over these answered cases.
compound | composite z-score
C=C1C2CC3C(=C4C(CO[C@@H]4[C@H]4CCCN4S(=O)(=O)c4ccccc4[N+](=O)[O-])C4C(=O)N(C)C(=O)C34)CC2C(=O)N1C (some centres undefined) | 0.082
CN1C(=O)C2C(C1=O)C1C=C(c3ccc(CO)cc3)C2C(c2cccs2)N1Cc1cccc(OC(F)(F)F)c1 (centres undefined) | 1.38
CN(C)CCCNC(=O)[C@@]1(c2ccc([N+](=O)[O-])cc2)CC(=O)N(CC23CC4CC(CC(C4)C2)C3)[C@@H]1c1ccc(CO)cc1 | 1.32

Kindly review the next compound as well.
Find composite z-score (Noggin (protein binding on small-molecule microarray)) for the entry COc1ccccc1CN1C(=O)c2ccccc2[C@@H](C(=O)NC(C)C)[C@@H]1c1ccc(CO)cc1
0.885

###

assay_overview: inhibitors of hydroxyurea-induced Chk1 phosphorylation, primary screen, imaging, HeLa, phospho-Chk1 antibody, percent positive cells (AID 1186)
condition_info: hydroxyurea-induced phospho-Chk1 immunofluorescence imaging, higher = more signal
Note: every record was labeled by where its z-score sits among A = under -0.3, B = from -0.3 up to 0.08, C = 0.08 and over

Answered examples (3):
compound | answer_label
CN(C)CCCCNC(=O)[C@H]1C[C@H]2C(=O)N[C@@H](CCCCN(C)C)C(=O)N2[C@H]1c1cccc(OCCO)c1 | C
CN(C)CCCNC(=O)[C@@H]1c2ccccc2C(=O)N(CC23CC4CC(CC(C4)C2)C3)[C@H]1c1ccc(CO)cc1 | C
COc1cc(OC)c(C(O)C2C=CC3C(=O)N(c4ccccc4)C(=O)C3N2Nc2ccc(C#N)cc2)cc1Br (configuration not stated) | B

Form field 'band' for C=C(/C(=C/C[C@@H](OC(=O)c1ccncc1)c1ccccc1OCCO)c1cc(C(=O)OC)ccc1OC)C(C)C
A

Form field 'band' for CN(C)CCCN1C(=O)[C@@]2(c3ccc([N+](=O)[O-])cc3)CC(=O)N(CC34CC5CC(CC(C5)C3)C4)[C@@H]2c2ccc(CO)cc21
A

Form field 'band' for C=C[C@H](COC(C)=O)NS(=O)(=O)c1ccc(Br)cc1
A

###

assay_overview: P. aeruginosa biofilm formation inhibitors, primary screen, strain PAO1, LB-PBS medium, absorbance 600 nm (AID 1176); further: test concentration not given here
condition_info: P. aeruginosa PAO1 growth/biofilm, A600, 12 h; higher = more signal
Would you please tag the item 1 when its z-score is 0.5 or above, and -1 when it is below?

Dear colleague, could you confirm whether O=C1O[C@@H](c2ccccc2)[C@@H](c2ccccc2)N2[C@@H](c3ccc(O)cc3)[C@]3(C(=O)Nc4ccc(C#CCCO)cc43)[C@@H](C(=O)NC[C@H](O)c3ccccc3)[C@H]12 has z-score at or above 0.5?
-1

Dear colleague, could you confirm whether C=CCC(OC(C)=O)[C@@H]1[C@@H](N(Cc2cc3ccccc3o2)C(=O)Cc2ccc(F)cc2)c2cc(OCCCO)ccc2N1C(=O)c1ccc2ccccc2n1 (some centres not stated) has z-score at or above 0.5?
-1

Dear colleague, could you confirm whether [N-]=[N+]=Nc1ccccc1C[C@@]1(C(=O)O)N=C(c2ccc(OCCCO)cc2)O[C@@H]1c1ccccc1 has z-score at or above 0.5?
-1

Dear colleague, could you confirm whether COC(=O)[C@@]1(Cc2ccc(F)cc2)[C@H]2c3cc(C(=O)N4CCCC4)n(CCc4c[nH]c5ccc(OC)cc45)c3C[C@H]2CN1C(=O)c1ccccc1 has z-score at or above 0.5?
1

Dear colleague, could you confirm whether COCC(=C=CC[C@H](O)c1ccc(OCCO)cc1)C[C@H](O)COCc1ccccc1 has z-score at or above 0.5?
-1

Dear colleague, could you confirm whether O=C1C2C=CC(C(O)c3cc(C(F)(F)F)cc(C(F)(F)F)c3)N(Nc3ccc([N+](=O)[O-])cc3)C2C(=O)N1c1ccccc1 (configuration not stated) has z-score at or above 0.5?
1

###

assay_overview: small-molecule binders of probe aInhba, primary screen, biochemical, small-molecule microarray, 635/667 nm fluorescence (AID 1148);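 further: score merges 667nm spot fluorescence with signal-to-noise for antibody binding to printed compounds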
condition_info: higher = more signal
Would you please tag the item Fulfilled when its composite z-score is 0.03 or above, and Not fulfilled when it is below?

Answered examples (2):
molecule | answer_label
O=C1O[C@@H](c2ccccc2)[C@@H](c2ccccc2)N2[C@@H](c3ccccc3OCCO)[C@]3(C(=O)Nc4ccc(C#CCCO)cc43)[C@@H](C(=O)Nc3nc4ccccc4s3)[C@H]12 | Fulfilled
C=C(COC)/C(=C/C[C@@H](OC(=O)c1ccncc1)c1cccc(OCCO)c1)c1cnc2ccccc2c1 | Fulfilled

Then there is this molecule:
Dear colleague, could you confirm whether O=C1O[C@H](c2ccccc2)[C@H](c2ccccc2)N2[C@H]1[C@@H](C(=O)O)[C@]1(C(=O)Nc3ccccc31)[C@H]2c1ccc(O)cc1 has composite z-score at or above 0.03?
Not fulfilled

###

assay_overview: P. aeruginosa biofilm formation inhibitors, primary screen, PAO1 strain, BacTiter-Glo luminescence, LB-PBS (AID 1144)
condition_info: 12 h, higher = more signal
Activity calls are given as the source filed them. The rule behind the calls is not given here.
List of z-score values.

compound | measured_metric | result
CCCC=C(CCC)[C@@H](NP(=O)(c1ccccc1)c1ccccc1)c1ccc(C(F)(F)F)cc1 | z-score | 0.592 (inactive)
O=c1cccc(-c2ccc(C(F)(F)F)cc2)o1 | z-score | 0.634 (inactive)
COCCOC(=O)N1C(=O)[C@@]2(c3cc(C#CC4(O)CCCCCC4)ccc31)[C@H](C(N)=O)[C@H]1C(=O)O[C@H](c3ccccc3)[C@H](c3ccccc3)N1[C@@H]2c1ccc(O)cc1 | z-score | 0.00701 (inactive)
C=C1C2CC3C(=C4C(CO[C@@H]4[C@H]4CCCN4S(=O)(=O)c4ccccc4[N+](=O)[O-])C4C(=O)N(C)C(=O)C34)CC2C(=O)N1C (some centres not stated) | z-score | 0.283 (inactive)
O=C1c2ccccc2[C@](Cc2ccccc2I)(C(=O)NCCN2CCOCC2)[C@H](c2ccc(CO)cc2)N1Cc1ccccc1 | z-score | 0.536 (inactive)
[N-]=[N+]=Nc1ccccc1C[C@@]1(C(=O)O)N=C(c2ccc(OCCCO)cc2)O[C@@H]1c1ccccc1 | z-score | -0.078 (inactive)

Kindly review the next compound as well.
Record request: z-score value, item COCCOC(=O)N1C(=O)[C@@]2(c3cc(C#Cc4ccc(OC)cc4)ccc31)[C@H](C(=O)N1CCCCCCC1)[C@H]1C(=O)O[C@H](c3ccccc3)[C@H](c3ccccc3)N1[C@@H]2c1ccc(O)cc1
-1.11 (inactive)

###

List of z-score values.
assay_overview: FRG1 promoter luciferase signal modulators, primary screen, FRG1 inhibition for FSHD, cell-based, C2C12 myotubes, firefly/Renilla luciferase, luminescence (AID 1084)
condition_info: higher = more signal, called active from +8 up or from −8 down
Format: numeric value only, no unit, no commentary.

Look over these answered cases.
compound | z-score
O=C1O[C@@H](c2ccccc2)[C@@H](c2ccccc2)N2[C@@H](c3ccccc3OCCO)[C@]3(C(=O)Nc4ccc(C#CCCO)cc43)[C@@H](C(=O)N3CCN(c4ncccn4)CC3)[C@H]12 | -2.32
O=C(O)[C@H]1C[C@H]2C(=O)N3CCC[C@H]3C(=O)N2[C@H]1c1cccc(OCCO)c1 | 6.19
CCOC(=O)[C@@H]1[C@@H]2C(=O)N(CC)C(=O)[C@@H]2C[C@@H]1Sc1ccccc1 | -1.02
O=c1cccc(-c2cccc(Cl)c2)o1 | 2.02
CCOC(=O)C[C@H]1[C@H](OC(=O)c2ccc(-c3ccccc3)cc2)[C@@H](NC(=O)c2ccc3ccccc3n2)c2cc(OCCCO)ccc2N1C(=O)c1ccccc1 | -0.561

Record request: z-score value, item O=C1O[C@H](c2ccccc2)[C@H](c2ccccc2)N2[C@H]1[C@@H](C(=O)O)[C@]1(C(=O)Nc3ccccc31)[C@H]2c1ccc(O)cc1
1.28

Record request: z-score value, item CCCC[C@@H]1C[C@H]1[C@@H](NC(=O)c1ccccc1)c1ccc(Cl)cc1
1.62

Record request: z-score value, item CCOC(=O)C1=CC[C@@H](c2ccc([N+](=O)[O-])cc2)N(S(=O)(=O)c2ccc(C)cc2)[C@H]1c1ccccc1
-2.02

Record request: z-score value, item CCOC(=O)C[C@H]1[C@H](OC(=O)c2ccccc2-c2ccccc2)[C@@H](NC(=O)CC(C)C)c2cc(OCCCO)ccc2N1C(=O)c1ccc2ccccc2n1
0.0832

Record request: z-score value, item COCC(=C=CC[C@H](O)c1cccc(OCCO)c1)C[C@H](O)c1ccccn1
0.0158

Record request: z-score value, item C=CCN1C(=O)[C@@]2(O[C@@H](CCO)[C@H]([Si](C)(C)c3ccc(OC)cc3)[C@H]2C)c2cc(N3C(=O)c4ccccc4Oc4ccccc43)ccc21
-1.94
